Where these numbers come from: the supplement of paper PMC12317010

Assay overview: collision cross section in nitrogen (drift tube, single-field); higher = larger gas-phase ion size;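 also: chemical standards at 10 µM analysed by drift tube IMS-QTOF MS in about 3.95 torr nitrogen, mean of duplicate injections differing ≤1%, mass error below 10 ppm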
Condition context: ion type: [M-H]; ion source: ESI; ion mode: Negative
Structures can show the parent of a compound that is named as a salt.
Metric name: collision cross section in nitrogen (Å²)
Write the value in Å² as a bare number.

Noted for O=C1CN(N=Cc2ccc(-c3ccc([N+](=O)[O-])cc3)o2)C(=O)N1 [Dantrolene sodium] : its collision cross section in nitrogen reads 180

Kindly note the recorded collision cross section in nitrogen for `CCCCOC(=O)c1ccc(O)cc1` , which is 149.4

Reported collision cross section in nitrogen for CCC(=O)O[C@H]1C[C@@H]2CC[C@@]1(C)C2(C)C [Isobornyl propanoate] was 155.8

// collision cross section in nitrogen lookup, compound = CCCCC(CC)COC(=O)c1ccc(O)cc1 (configuration not stated) [2-Ethylhexyl p-hydroxybenzoate] , result: 169.9

Record summary for `CC(C)(O)c1ccc(CNC(=O)c2cccnc2Oc2ccc3nonc3c2)cc1` : reported collision cross section in nitrogen = 201

The recorded collision cross section in nitrogen for `CC(c1ccc(O)cc1)c1ccc(O)cc1` is 158.3

Form field collision cross section in nitrogen, entry `COc1ccc(S(=O)(=O)N2C(=O)[C@@](c3ccccc3OC)(N3C[C@H](O)C[C@H]3C(=O)N(C)C)c3cc(Cl)ccc32)c(OC)c1` : 233.1

response.value for `C#CCN1C(=O)COc2cc(F)c(N3C(=O)C4=C(CCCC4)C3=O)cc21` (field: collision cross section in nitrogen) = 184.5

The reported value for `Cc1cc(NC(=O)C(=O)O)cc(C)c1Oc1ccc(O)c2c1CCC2` in terms of collision cross section in nitrogen is 199.1

For this compound ( COc1ccc(OC)c(C(O)CNC(=O)CN)c1 (configuration not stated) [Midodrine hydrochloride] ), measured collision cross section in nitrogen is 159.5

compound `C[C@]12CC[C@H]3[C@@H](CC[C@@]45O[C@@H]4C(O)=C(C#N)C[C@]35C)[C@@H]1CC[C@@H]2O` , collision cross section in nitrogen observed: 186.2

Short answer for `CCCCC/C=C\C/C=C\CCCCCCCC(=O)O` : collision cross section in nitrogen was 175.2

// recorded collision cross section in nitrogen for `CCN(Cc1cccc(S(=O)(=O)O)c1)c1ccc(C(=C2C=CC(=[N+](CC)Cc3cccc(S(=O)(=O)[O-])c3)C=C2)c2ccccc2)cc1` : 261.9

Lab book: collision cross section in nitrogen of `CCCOC(=O)c1cc(O)c(O)c(O)c1` noted as 146.5

The reported collision cross section in nitrogen of the compound C#CC(C)(C)NC(=O)c1cc(Cl)cc(Cl)c1 [Propyzamide] was 157.3

collision cross section in nitrogen for `CCCCCCc1ccc(O)cc1O` is 150.2

What the record says about COc1ccccc1N=Nc1c(S(=O)(=O)O)cc2cc(S(=O)(=O)O)cc(NC(C)=O)c2c1O [C.I. Acid Violet 12, disodium salt] : collision cross section in nitrogen is 218

---

Assay overview: collision cross section in nitrogen (drift tube, single-field); higher = larger gas-phase ion size
Condition context: ion type: [M-H]; ion source: ESI; ion mode: Negative
Structures can show the parent of a compound that is named as a salt.
Assign collision cross section in nitrogen to each entry below.
Give the quantity in Å², number only.

Reported collision cross section in nitrogen of O=S(=O)(O)NC1CCCCC1 [Cyclamic acid] : 139.6

So for Nc1ccc(S(=O)(=O)O)c(N)c1 [2,4-Diaminobenzenesulfonic acid] , the logged collision cross section in nitrogen turned out to be 137.9

So, CCC(=O)/C=C/C1C(C)=CCCC1(C)C (stereo not given) [Methylionone] ? Its collision cross section in nitrogen was 155.8

Record O=C(O)C1C2CCC(O2)C1C(=O)O (stereo not given) [Endothal] , field collision cross section in nitrogen: 135.6

Entry under test: CCCC(=O)c1cc(O)c(O)cc1O [2',4',5'-Trihydroxybutyrophenone] . Its collision cross section in nitrogen was 141.3

Form field collision cross section in nitrogen, entry CC(C)(C)c1cc(/C=C2\SC(=N)NC2=O)cc(C(C)(C)C)c1O [Darbufelone mesylate] : 186.1

Briefly, collision cross section in nitrogen measured for Cc1ccc(O)cn1 [6-Methyl-3-hydroxypyridine] : 120.4

// field: collision cross section in nitrogen; key: Oc1cccc(-c2ccccc2)c1 [3-Phenylphenol] ; value = 140

According to the records, this compound CC1=C(C#N)C(=O)N(C)C(=O)C1 [1,2-Dihydro-6-hydroxy-1,4-dimethyl-2-oxonicotinonitrile] displays collision cross section in nitrogen of 131.2

Form field collision cross section in nitrogen, entry O=C(O)CCCc1c[nH]c2ccccc12 [Indole-3-butyric acid] : 154.8

---

Assay overview: collision cross section in nitrogen (drift tube, single-field); higher = larger gas-phase ion size
Condition context: ion type: [M-H]; ion source: ESI; ion mode: Negative
Where a name gives a salt, the structure may show the parent alone.
Exercise: for every item that follows, state its recorded collision cross section in nitrogen.
Express it in Å²; write the number only.

Value of measured collision cross section in nitrogen for the entry COC(=O)C1(O)c2ccccc2-c2ccccc21 [Methyl 9-hydroxy-9H-fluorene-9-carboxylate] : 150.1

Form: molecule = CCC1(C)NC(=O)NC1=O (stereo not given) ; collision cross section in nitrogen = 129.7

Reported collision cross section in nitrogen for CCCCN1C(=O)[C@@H]([C@H](O)C2CCCCC2)NC(=O)C12CCN(Cc1ccc(Oc3ccc(C(=O)O)cc3)cc1)CC2 [Aplaviroc hydrochloride] was 235.7

The recorded collision cross section in nitrogen for entry CCc1cc(C2=C(C(=O)O)N(c3ccccc3C(F)(F)F)S(=O)(=O)c3ccccc32)cc2c1OCO2 [Fandosentan potassium salt] equals 204.7

collision cross section in nitrogen reported for this molecule `CC(C)(c1cc(Br)c(O)c(Br)c1)c1cc(Br)c(O)c(Br)c1` : 193.4

The molecule listed as `C/C(=N\C#N)N(C)Cc1ccc(Cl)nc1` shows collision cross section in nitrogen equal to 149.1

What the record says about `Oc1ccccc1-c1ccccc1` : collision cross section in nitrogen is 136.4

Recorded collision cross section in nitrogen (molecule `Oc1ccc(Cl)c(O)c1` ): 122.5

The reported value for `Cc1ncc(CO)c(CO)c1O` in terms of collision cross section in nitrogen is 133.2

The recorded collision cross section in nitrogen for entry COc1ccccc1NC(=O)c1cc2ccccc2cc1O [3-Hydroxy-2-naphthoic o-anisidide] equals 168.9

Item: `Oc1ccc(-c2ccccc2)cc1` | collision cross section in nitrogen: 139.3

In plain terms, Oc1ccc(C2COc3cc(O)ccc3C2)cc1 (racemic) [(R,S)-Equol] has a documented collision cross section in nitrogen of 159.6

// collision cross section in nitrogen value for CN(C)NC(=O)CCC(=O)O [Daminozide] : 135.2

Recorded collision cross section in nitrogen (molecule CCc1cc(C(N)=S)ccn1 [Ethionamide] ): 135.2

The molecule listed as `CNC(=O)Nc1ccc(Cl)c(Cl)c1` shows collision cross section in nitrogen equal to 142.4

The molecule listed as `CC(C)Oc1ccc(S(=O)(=O)c2ccc(O)cc2)cc1` shows collision cross section in nitrogen equal to 174.8

Short answer for `Oc1ccc(C(c2ccc(O)cc2)(C(F)(F)F)C(F)(F)F)cc1` : collision cross section in nitrogen was 165.6

collision cross section in nitrogen recorded for this molecule, N#Cc1nn(-c2c(Cl)cc(C(F)(F)F)cc2Cl)c(N)c1S(=O)C(F)(F)F (stereo not given) , is 178.1

So for `CCn1nc(C)c2c1C(=O)NCC(c1ccc(O)cc1)=N2` , the logged collision cross section in nitrogen turned out to be 172.9

# molecule `O=C(O)c1ccccc1-n1cc(C(=O)O)c(=O)c2cc(Nc3c(F)cc(F)cc3Cl)c(Cl)cc21` ; its collision cross section in nitrogen = 216.1

The measured collision cross section in nitrogen associated with `N#C/N=C1\SCCN1Cc1ccc(Cl)nc1` reads 154.5

The measured collision cross section in nitrogen associated with `O=[N+]([O-])c1ccc(Nc2ccc(Nc3ccccc3)c(S(=O)(=O)O)c2)c([N+](=O)[O-])c1` reads 204.4

Item: `CC(=O)OCC(=O)[C@@]12N=C(C)O[C@@H]1C[C@H]1[C@@H]3CCC4=CC(=O)C=C[C@]4(C)[C@H]3[C@@H](O)C[C@@]12C` | collision cross section in nitrogen: 206.7

Query NC(=O)c1ccccc1O [Salicylamide] yields collision cross section in nitrogen of 122.2

The recorded collision cross section in nitrogen for `Cc1ccc(Nc2ccc(Nc3ccc(C)cc3S(=O)(=O)O)c3c2C(=O)c2ccccc2C3=O)c(S(=O)(=O)O)c1` is 227.8

The molecule listed as `COc1ccc(C(=O)Nc2nc3ccccc3c(NCc3ccccc3)c2C#N)cc1` shows collision cross section in nitrogen equal to 210.8

Field collision cross section in nitrogen (entry `CS(=O)(=O)c1ccc(C(=O)C2C(=O)CCCC2=O)c(Cl)c1COCC(F)(F)F` ) reads 188.5

Reported collision cross section in nitrogen for O=C(O)c1ccccc1C(=O)OCc1ccccc1 [Monobenzyl phthalate] was 160.8

Item: CC(C)(C)C(=O)C(Oc1ccc(Cl)cc1)n1cncn1 (stereo not given) | collision cross section in nitrogen: 167.7

Looking up `Cc1ccc(C)c(O)c1C` , I see its collision cross section in nitrogen listed as 130.9

So for CCNP(=S)(OC)O/C(C)=C/C(=O)OC(C)C (stereo not given) , the logged collision cross section in nitrogen turned out to be 168.1

Value of measured collision cross section in nitrogen for the entry `O=C(Nc1ccccc1-c1ccc(Cl)cc1)c1cccnc1Cl` : 177.1

Note to self: collision cross section in nitrogen recorded for O=C1NC(=O)C(c2ccccc2)(c2ccccc2)N1 [Diphenylhydantoin sodium] was 160.6

Just so you know, measured collision cross section in nitrogen for CC(C)C1(C)N=C(c2nc3ccccc3cc2C(=O)O)NC1=O (stereo not given) came out at 176.9

Consider `O=c1nn[nH]c2ccccc12` . Its measured collision cross section in nitrogen is 126.4
